# credit: ChEMBL document CHEMBL2218064

Measured IC50, listed per entry.
MEASUREMENT TARGET: P2X purinoceptor 7 (Homo sapiens)
Sequence (Q99572 whole entry): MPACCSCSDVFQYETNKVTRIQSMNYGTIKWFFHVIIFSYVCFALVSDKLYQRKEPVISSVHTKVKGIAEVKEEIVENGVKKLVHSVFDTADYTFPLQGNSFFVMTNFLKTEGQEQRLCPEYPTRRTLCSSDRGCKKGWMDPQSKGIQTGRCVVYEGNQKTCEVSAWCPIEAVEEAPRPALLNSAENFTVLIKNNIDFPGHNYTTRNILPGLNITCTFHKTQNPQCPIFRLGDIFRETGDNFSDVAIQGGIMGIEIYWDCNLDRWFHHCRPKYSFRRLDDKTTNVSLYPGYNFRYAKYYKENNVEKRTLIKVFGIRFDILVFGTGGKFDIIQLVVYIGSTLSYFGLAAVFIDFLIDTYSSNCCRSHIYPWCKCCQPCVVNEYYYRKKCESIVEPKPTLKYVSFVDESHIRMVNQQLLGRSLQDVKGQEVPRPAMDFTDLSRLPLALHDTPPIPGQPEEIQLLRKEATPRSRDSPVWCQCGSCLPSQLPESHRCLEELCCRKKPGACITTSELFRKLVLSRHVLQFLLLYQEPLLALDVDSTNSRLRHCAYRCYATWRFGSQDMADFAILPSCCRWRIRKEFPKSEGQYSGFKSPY
Answer in µM, number only, no unit symbol.

CC(C)N1CCN(C(=O)c2cccc(C(F)(F)F)c2Cl)CC1=O; 0.1
O=C(c1ccc(Cl)cc1Cl)N1CCn2c(nnc2-c2ccc(F)cc2F)C1; 0.1
Cc1nn(CCNCCO)c(C)c1CC(=O)NCc1ccc(F)cc1Cl; 0.1

query: Requested field: IC50. Item: CN1C(=O)CC[C@H]1C(=O)NCc1ccc(F)cc1C(F)(F)F
result: 0.1

query: Requested field: IC50. Item: Cn1ncc(F)c1CC(=O)NCc1ccc(F)c(F)c1Cl
result: 0.1
